tested on: EKVX; assay: NCI tumour cell line growth inhibition, 48 h
The source made the active and inactive calls. No stated cut-off is given here; in the data, active = GI50 up to about 1.1 µM and inactive = higher.
testReadout: GI50

Solved cases below.
{"compound": "CCCCCCCCCCCCC/C=C/[C@H]1[C@@H](C(=O)OC)N1[S+]([O-])c1ccc(C)cc1 (some centres undefined)", "systemUnderTest": "EKVX", "valueObserved": "88.3 µM (inactive)"}
{"compound": "O=Cc1c(Br)[nH]c2ccccc12", "systemUnderTest": "EKVX", "valueObserved": "> 100 µM (inactive)"}

Below are 2 compounds. Give each one its GI50.
1. Cc1cc(Cl)ccc1/N=C1/NC(=O)C(CC(=O)Nc2cccc(C)c2C)S1 (centres undefined)
2. Brc1sc(Br)c2c1[C@H](Br)C[C@@H]2Br

Result:
37.8 µM (inactive)
> 100 µM (inactive)
